test system: SUDHL10; assay: Induction of cytotoxicity in SUDHL10 cells, CellTiter-Glo (Assay 6); assay type: cell-based; settings: read-out: Cytotox SUDHL10 [M] (median), SUDHL10, 5 hours incubation
experimentalReadout: IC50 (M)
Unit M implied. Number only.

Lab note: measured IC50 of Cc1c2c(nn1C)CNCc1ccccc1Cn1c(C(=O)O)c(CCCOc3cccc4ccccc34)c3cccc-2c31 (single isomer, unassigned; enantiomer 1) [Example 12] was 5e-06

Entry under test: Cc1c2c(nn1C)CNCc1ccccc1Cn1c(C(=O)O)c(CCCOc3cccc4ccccc34)c3cccc-2c31 (single isomer, unassigned; enantiomer 2) [Example 13] . Its IC50 was 2.5e-05

###

target: MCL-1 (Homo sapiens, UniProt Q07820, K194A/K197A/R201A); test: Protein-protein interaction assay MCL-1/Noxa BH3 peptide, TR-FRET (MCL-1 assay, Assay 1); format: binding; conditions: MCL-1 Assay [M] (median), MBP-MCL-1 / Noxa BH3 peptide
Sequence (Q07820 173-321 K194A/K197A/R201A, looked up): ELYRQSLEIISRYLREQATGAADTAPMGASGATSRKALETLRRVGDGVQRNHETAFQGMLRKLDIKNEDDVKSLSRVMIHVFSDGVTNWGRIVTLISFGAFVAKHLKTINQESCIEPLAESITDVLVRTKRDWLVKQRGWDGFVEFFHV
Counter-ions that a name gives are not always drawn.
experimentalReadout: IC50 (M)
Numbers only here, please. The scale is M.

Note to self: IC50 of Cc1c2c(nn1C)CN(C(=O)CC1CCOCC1)Cc1ccccc1Cn1c(C(=O)O)c(CCCOc3cccc4ccccc34)c3cccc-2c31 (racemic) [Example 21] with MCL-1 (Homo sapiens, UniProt Q07820, K194A/K197A/R201A) was 3.5e-08

Response field IC50 (MCL-1 (Homo sapiens, UniProt Q07820, K194A/K197A/R201A)) for item Cc1c2c(nn1C)COCc1ncccc1Cn1c(C(=O)O)c(CCCOc3cccc4ccccc34)c3cccc-2c31 (single isomer, unassigned; enantiomer 1) [Example 8] : 1.5e-09

Observed IC50 on MCL-1 (Homo sapiens, UniProt Q07820, K194A/K197A/R201A), entry Cc1c2c(nn1C)COCc1ccccc1Cn1c(C(=O)O)c(CCCOc3cccc4ccccc34)c3ccc(Cl)c-2c31 (racemic) [Example 36] , equals 3.2e-09

Sample Cc1c2c(nn1C)COCc1ccccc1Cn1c(C(=O)O)c(CCCOc3cccc4ccccc34)c3ccc(F)c-2c31 (single isomer, unassigned; enantiomer 1) [Example 68] , system: MCL-1 (Homo sapiens, UniProt Q07820, K194A/K197A/R201A). Its IC50 is 3.2e-09

Per the reported MCL-1 (Homo sapiens, UniProt Q07820, K194A/K197A/R201A) data, CCc1c2c(nn1C)COCc1ccccc1Cn1c(C(=O)O)c(CCCOc3ccc(F)c4ccccc34)c3ccc(F)c-2c31 (racemic) has IC50 of 3.1e-09

MCL-1 (Homo sapiens, UniProt Q07820, K194A/K197A/R201A) IC50 of Cc1c2c(nn1C)COCc1ccccc1Cn1c(C(=O)O)c(CCCOc3cccc4cc(F)ccc34)c3ccc(F)c-2c31 (single isomer, unassigned; enantiomer 1) [Example 65] is 1.3e-09

Cc1c2c(nn1C)COCc1nccnc1Cn1c(C(=O)O)c(CCCOc3cccc4cc(F)ccc34)c3ccc(Cl)c-2c31 (racemic) tested on MCL-1 (Homo sapiens, UniProt Q07820, K194A/K197A/R201A) gave IC50: 1.5e-09

// assay MCL-1 (Homo sapiens, UniProt Q07820, K194A/K197A/R201A), entry CCc1c2c(nn1C)COCc1ccccc1Cn1c(C(=O)O)c(CCCOC3CCCc4ccccc43)c3ccc(F)c-2c31 (racemic) , IC50 value = 1.8e-08

The reported MCL-1 (Homo sapiens, UniProt Q07820, K194A/K197A/R201A) IC50 of CCc1nn(C)c2c1-c1c(F)ccc3c(CCCOc4cccc5c4CCC5)c(C(=O)O)n(c13)Cc1ccccc1COC2 (racemic) is 4.5e-09

Record Cc1c2c(nn1C)CN(S(=O)(=O)c1ccc(N3CCOCC3)nc1)Cc1ccccc1Cn1c(C(=O)O)c(CCCOc3cccc4ccccc34)c3cccc-2c31 (racemic) [Example 17, Acetate Salt] has MCL-1 (Homo sapiens, UniProt Q07820, K194A/K197A/R201A) IC50 equal to 3.4e-08

The reported MCL-1 (Homo sapiens, UniProt Q07820, K194A/K197A/R201A) IC50 of Cc1c2c(nn1C)CN(C(=O)NCC1CCOCC1)Cc1ccccc1Cn1c(C(=O)O)c(CCCOc3cccc4ccccc34)c3cccc-2c31 (racemic) [Example 27] is 3.1e-08

Entry COc1cc(CNC(=O)N2Cc3ccccc3Cn3c(C(=O)O)c(CCCOc4cccc5ccccc45)c4cccc(c43)-c3c(nn(C)c3C)C2)cc(OC)c1OC (racemic) under MCL-1 (Homo sapiens, UniProt Q07820, K194A/K197A/R201A) had IC50 of 1.8e-07

MCL-1 (Homo sapiens, UniProt Q07820, K194A/K197A/R201A) data for CCc1c2c(nn1C)COCc1ccccc1Cn1c(C(=O)O)c(CCCOc3cc(C)c(Cl)c(C)c3)c3ccc(F)c-2c31 (racemic) ; its IC50: 2.6e-09

The compound CCc1nn(C)c2c1-c1c(F)ccc3c(CCCOc4cccc5c4CCCC5)c(C(=O)O)n(c13)Cc1ccccc1COC2 (racemic) , tested on MCL-1 (Homo sapiens, UniProt Q07820, K194A/K197A/R201A), showed IC50 of 7.4e-09

The compound CCc1nn(C)c2c1-c1c(F)ccc3c(CCCOc4cccc5ccccc45)c(C(=O)O)n(c13)Cc1ccccc1COC2 (racemic) on MCL-1 (Homo sapiens, UniProt Q07820, K194A/K197A/R201A): IC50 was 8.6e-09

Record for Cc1c2c(nn1C)CN(C(=O)NC1CCOCC1)Cc1ccccc1Cn1c(C(=O)O)c(CCCOc3cccc4ccccc34)c3cccc-2c31 (single isomer, unassigned; enantiomer 1) [Example 25] under target or system MCL-1 (Homo sapiens, UniProt Q07820, K194A/K197A/R201A): IC50 reported as 2.6e-07

Reading of IC50 for Cc1c2c(nn1C)COCc1cccnc1Cn1c(C(=O)O)c(CCCOc3cccc4ccccc34)c3cccc-2c31 (single isomer, unassigned; enantiomer 2) [Example 6] with MCL-1 (Homo sapiens, UniProt Q07820, K194A/K197A/R201A): 1.1e-08

Here Cc1c2c(nn1C)COCc1ccccc1Cn1c(C(=O)O)c(CCCOc3cccc4cc(F)ccc34)c3ccc(Cl)c-2c31 (single isomer, unassigned; enantiomer 2) [Example 50] was tested on MCL-1 (Homo sapiens, UniProt Q07820, K194A/K197A/R201A), and its IC50 came to 1.4e-09

// returns IC50 for Cc1c2c(nn1C)CN(S(=O)(=O)CCN1CCOCC1)Cc1ccccc1Cn1c(C(=O)O)c(CCCOc3cccc4ccccc34)c3cccc-2c31 (single isomer, unassigned; enantiomer 1) [Example 31] with MCL-1 (Homo sapiens, UniProt Q07820, K194A/K197A/R201A); value = 1.3e-08

Short answer on MCL-1 (Homo sapiens, UniProt Q07820, K194A/K197A/R201A) for Cc1c2c(nn1C)CN(C(=O)NCC1CCOCC1)Cc1ccccc1Cn1c(C(=O)O)c(CCCOc3cccc4ccccc34)c3cccc-2c31 (single isomer, unassigned; enantiomer 2) [Example 29] , IC50: 3e-08

The value of IC50 recorded for Cc1c2c(nn1C)COCc1ccccc1Cn1c(C(=O)O)c(CCCOc3cccc4ccccc34)c3ccc(Cl)c-2c31 (single isomer, unassigned; enantiomer 2) [Example 38] when tested on MCL-1 (Homo sapiens, UniProt Q07820, K194A/K197A/R201A) reads 7.1e-09

Kindly note: MCL-1 (Homo sapiens, UniProt Q07820, K194A/K197A/R201A), Cc1c2c(nn1C)COCc1ccccc1Cn1c(C(=O)O)c(CCCOc3cccc4ccccc34)c3ccc(Cl)c-2c31 (single isomer, unassigned; enantiomer 1) [Example 37] , IC50 value reported: 1.3e-09
